system: M19-MEL; test: NCI tumour cell line growth inhibition, 48 h
Calls of active or inactive are those of the source. No stated cut-off is given here; in the data, active = GI50 up to about 1.1 µM and inactive = higher.
Respond only with the outcome that fits, drawn from 1 (yes) for active, 0 (no) for inactive

Per the assay record, what outcome was assigned to O=[N+]([O-])c1ccc(CNC2=NNS(=O)(=O)c3ccccc32)cc1 ? 0 (no)

Can you look up the reported call for C/C(=N\NC(N)=S)c1cc(C)c(C)cc1C for me? 0 (no)

In this assay, the call recorded for C/C(=N\N)C(CN1CCCCC1)C(c1ccccc1)c1c(O)c2ccccc2oc1=O (centres undefined) was what? 0 (no)

Hey, what did the test say about Cc1c(N)c(C#N)c2n(C)c3ncccc3n2c1=O ? 0 (no)

Write down the call the test reported for this compound. Item: CCOC(=O)C1(C(=O)OCC)C(C(C)(C)C)=C(C)c2ccccc21 0 (no)

What is the recorded call for this compound in the test? O=C1NC(=O)C2C1c1[nH]c3ccccc3c1C1CCCC12 (centres undefined) 1 (yes)

What was the test verdict on Cc1ccccc1NC(=O)c1ccc([N+](=O)[O-])cc1 ? 0 (no)

Would you mind telling me which call this test gave COC(=O)C(C(=O)Cc1ccccc1[N+](=O)[O-])C(=O)OC ? 0 (no)

Outcome? OC(CC1SCCCS1)c1ccccc1 (centres undefined) 0 (no)

Please state the recorded outcome for this compound: COc1cc([C@H]2Oc3c(c(O)cc4oc(-c5ccccc5)cc(=O)c34)O[C@@H]2CO)ccc1O 0 (no)

Hi, sorry to bother you, what did the test record for N=C(c1ccccc1)N(c1ccccc1)c1ccccc1 ? 0 (no)

Write down the call the test reported for this compound. Item: CC(C)NCCCC(C)Nc1ccnc2ccc3nn(C)nc3c12 (centres undefined) 0 (no)

Per the records of this test, what outcome belongs to CC1=C(C(=O)Nc2ccccc2C)C(c2ccccc2)C(C(=O)Nc2ccccc2C)=C(C)N1 ? 0 (no)

Could you kindly confirm the outcome this assay logged for N#CC(C(=O)/C(=N/NC(=O)c1ccccc1O)C(C#N)c1ccccc1)c1ccccc1 (centres undefined) ? 0 (no)

Please share the test call associated with CC(C)N1CCOC(c2ccc(O)c(O)c2)C1 (centres undefined) . 0 (no)

Would you mind telling me which call this test gave CC[C@@]1(O)C(=O)OCc2c1cc1n(c2=O)Cc2cc3cc(O)ccc3nc2-1 [HYDROXYCAMPTOTHECIN] ? 1 (yes)

Check the results log: what was the call for N#CC1(Cc2ccccc2[N+](=O)[O-])c2ccccc2C2C(N1C(=O)c1ccccc1)C2(Cl)Cl (centres undefined) ? 0 (no)

Entry CC/C(CC(=O)CCC(=O)Nc1ccc(C)c(C)c1)=N\NC(=O)c1cc2ccccc2cc1O : call = ? 0 (no)

Kindly provide the recorded test outcome for the following compound: CC1=CC2CC(C)=C(CC[C@]3(C)CC[C@H]([C@@H](C)C(=O)O)OO3)C(C)(C)C2CC1 (some centres undefined) 0 (no)
